Values compiled from ChEMBL document CHEMBL4184297.

target: Neutrophil elastase (Homo sapiens) (UniProt P08246); assay: Inhibition of human neutrophil elastase at 10 uM using N-Methoxysuccinyl-Ala-Ala-Pro-Val-p-nitroanilid as substrate preincubated for 20 mins followed by substrate addition measured at 1 min time interval for 5 mins by fluorescence assay
Sequence (P08246 whole entry): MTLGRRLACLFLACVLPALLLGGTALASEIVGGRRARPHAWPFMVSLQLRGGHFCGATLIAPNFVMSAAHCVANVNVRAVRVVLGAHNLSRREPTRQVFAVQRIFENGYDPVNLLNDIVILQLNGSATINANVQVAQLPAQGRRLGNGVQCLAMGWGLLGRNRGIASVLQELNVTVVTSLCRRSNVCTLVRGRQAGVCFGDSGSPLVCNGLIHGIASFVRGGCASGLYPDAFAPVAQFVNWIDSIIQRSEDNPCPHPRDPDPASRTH
Calls of active or inactive are those of the source. No cut-off for these calls is given here.
Possible outcomes: class 1 = active, class 0 = inactive

INPUT_SMILES | TEST_TARGET | ANSWER_LABEL
O=c1oc(Cl)c(Cl)c2ccccc12 | Neutrophil elastase (Homo sapiens) (UniProt P08246) | class 1
COc1ccc(/C=C/c2nc3ccccc3c(=O)o2)cc1 | Neutrophil elastase (Homo sapiens) (UniProt P08246) | class 0
O=c1oc(/C=C/c2ccccc2)nc2ccccc12 | Neutrophil elastase (Homo sapiens) (UniProt P08246) | class 0
O=c1oc(/C=C/c2ccccc2Cl)nc2ccccc12 | Neutrophil elastase (Homo sapiens) (UniProt P08246) | class 0

---

species on record: Bos taurus; assay: Inhibition of bovine pancreas trypsin at 10 uM using Z-Gly-Gly-Argaminomethylcoumarin as substrate preincubated for 30 mins followed by substrate addition measured at 1 min time interval for 5 mins by fluorescence assay
The source made the active and inactive calls. The calls are words filed in the database; no cut-off is given here.
Possible outcomes: 1 = active, 0 = inactive

INPUT_SMILES | ANSWER_LABEL
COc1ccc(/C=C/c2nc3ccccc3c(=O)o2)cc1 | 0
O=c1oc(Cl)c(Cl)c2ccccc12 | 1
O=c1oc(/C=C/c2ccccc2Cl)nc2ccccc12 | 0
O=c1oc(/C=C/c2ccccc2)nc2ccccc12 | 0
